# Tested on: A431
# EXPERIMENTAL DETAILS: LBPA endosome anti-LBPA integrated intensity (sum per cell), Z-score; higher = more LBPA staining
# CONDITION CONTEXT: compound concentration in added solution (µM; 5 µl added to 20 µl cells): 10; 18 h
Structures can show the parent of a compound that is named as a salt.
y means recorded LBPA endosome anti-LBPA integrated intensity (z-score) is -0.4 or above; n means it is below -0.4.

stdin: Is it the case that `COc1cc(C(=O)NS(=O)(=O)c2ccccc2C)ccc1Cc1cn(C)c2ccc(NC(=O)OC3CCCC3)cc12` has LBPA endosome anti-LBPA integrated intensity (z-score) reaching or exceeding -0.4?
stdout: n

stdin: And the next one, `CCOc1nc2cccc(C(=O)O)c2n1Cc1ccc(-c2ccccc2-c2nnn[nH]2)cc1` ?
stdout: y

stdin: And the next one, CN1CCCN(C(c2ccccc2)c2ccc(Cl)cc2)CC1 (stereo unspecified) [Homochlorcyclizine dihydrochloride] ?
stdout: y

stdin: And the next one, Cc1cccc(C)c1NC(=O)C1CCCCN1C (stereo unspecified) [Mepivacaine hydrochloride] ?
stdout: y

stdin: And the next one, CC1CCc2cc(F)cc3c(=O)c(C(=O)O)cn1c23 (stereo unspecified) ?
stdout: n

stdin: And the next one, `Nc1ccc(C(=O)O)c(O)c1` ?
stdout: n

stdin: And the next one, `N=C(N)NS(=O)(=O)c1ccc(N)cc1` ?
stdout: n

stdin: And the next one, CC(Oc1ccccc1)C(=O)N[C@@H]1C(=O)N2[C@@H]1SC(C)(C)[C@@H]2C(=O)O (stereo partly specified) [Phenethicillin potassium salt] ?
stdout: n

stdin: And the next one, OC(CCCN1CCCCC1)(c1ccccc1)c1ccccc1 [Diphenidol hydrochloride] ?
stdout: y

stdin: And the next one, CCC(=O)OCC(=O)[C@@]1(OC(=O)CC)[C@H](C)C[C@H]2[C@H]3[C@H]([C@@H](O)C[C@@]21C)[C@@]1(C)C=CC(=O)C=C1C[C@H]3Cl [Alclometasone dipropionate] ?
stdout: y

stdin: And the next one, NNc1nncc2ccccc12 [Hydralazine hydrochloride] ?
stdout: n
